- test_target: UniProtKB P22413
- Sequence (P22413 whole entry, species assumed): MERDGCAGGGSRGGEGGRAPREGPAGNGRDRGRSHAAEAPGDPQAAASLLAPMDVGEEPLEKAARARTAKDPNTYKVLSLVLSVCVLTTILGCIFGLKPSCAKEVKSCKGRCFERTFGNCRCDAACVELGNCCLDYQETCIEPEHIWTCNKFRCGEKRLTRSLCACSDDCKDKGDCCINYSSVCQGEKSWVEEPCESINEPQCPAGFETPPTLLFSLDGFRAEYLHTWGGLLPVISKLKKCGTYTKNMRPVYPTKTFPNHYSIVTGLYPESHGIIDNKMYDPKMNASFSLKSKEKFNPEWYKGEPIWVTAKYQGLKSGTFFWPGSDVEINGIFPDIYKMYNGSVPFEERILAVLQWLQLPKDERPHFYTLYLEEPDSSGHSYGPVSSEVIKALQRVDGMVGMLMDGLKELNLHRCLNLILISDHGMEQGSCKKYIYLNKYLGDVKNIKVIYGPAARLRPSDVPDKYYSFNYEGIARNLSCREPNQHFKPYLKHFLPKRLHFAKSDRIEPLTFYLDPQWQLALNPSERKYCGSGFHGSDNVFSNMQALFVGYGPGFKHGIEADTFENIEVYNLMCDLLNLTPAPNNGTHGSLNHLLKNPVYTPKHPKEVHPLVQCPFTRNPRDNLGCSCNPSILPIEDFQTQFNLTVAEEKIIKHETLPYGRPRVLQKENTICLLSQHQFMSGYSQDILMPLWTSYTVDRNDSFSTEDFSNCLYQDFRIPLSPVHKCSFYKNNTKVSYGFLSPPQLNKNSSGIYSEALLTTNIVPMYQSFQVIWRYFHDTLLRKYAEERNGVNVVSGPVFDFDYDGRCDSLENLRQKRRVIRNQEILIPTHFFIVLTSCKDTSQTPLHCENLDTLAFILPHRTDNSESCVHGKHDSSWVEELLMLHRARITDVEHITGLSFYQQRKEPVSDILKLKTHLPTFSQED
- protocol_details: ATP-Glo enzymatic assay (ATP substrate, AMP-Glo readout)
- Type: biochemical
- reported_conditions: 25° C. for 60 min, 50 mM Tris pH 8.8
pIC50: −log10 of the molar value.
parameter: pIC50

[[record]]
structure = "COc1ncc2c(c1-c1ccccc1)n(Cc1ccc(S(N)(=O)=O)cc1)c(=O)n2C"
parameter = "pIC50"
result = "> 9.00"

[[record]]
structure = "COc1ncc2ccn(Cc3ccc(NS(N)(=O)=O)cc3)c2c1-c1ccn(C)n1"
parameter = "pIC50"
result = "< 6.00"

[[record]]
structure = "Cc1ncc2nc(C)n(Cc3c(F)cc(S(N)(=O)=O)cc3F)c2c1C1=CCCC1"
parameter = "pIC50"
result = "> 9.00"

[[record]]
structure = "COc1ncc2nc(C(F)(F)F)n(Cc3ncc(S(N)(=O)=O)cc3F)c2c1-c1ccccc1"
parameter = "pIC50"
result = "> 9.00"

[[record]]
structure = "Cc1ncc(-c2ccccc2)c2c1nc(C)n2Cc1ccc(S(N)(=O)=O)cc1"
parameter = "pIC50"
result = "> 9.00"

[[record]]
structure = "Cc1ncc2c(C)cn(Cc3ccc(S(N)(=O)=O)cc3)c2c1-c1ccccc1"
parameter = "pIC50"
result = "> 9.00"

[[record]]
structure = "COc1ncc2ccn(Cc3ccc(S(N)(=O)=O)cc3)c2c1-n1ccc(C)n1"
parameter = "pIC50"
result = "7.00 to 8.00"


Now look at this one.
Identify measured pIC50 corresponding to "Cc1ncc2c(C)cn(Cc3c(F)cc(S(N)(=O)=O)cc3F)c2c1-c1ccccc1" > 9.00
